Quick reference for relative viability among some compounds
Test system: LC-2-ad
Experiment: relative viability (nuclei count vs DMSO), 5 days (fraction); higher = more cells survive
Conditions: first compound 0.253 µM
In your answer, state the number alone without any accompanying words.

Consider the reported relative viability for these compounds:
# compound, relative viability
rows = [
    ("O=c1cc(-c2cccc3c2Sc2ccccc2S3)oc(N2CCOCC2)c1 + N=C(N)NC(=N)NCCc1ccccc1 [Phenformin] (partner 250 µM)", 0.576),
    ("COc1nc(C)cnc1NS(=O)(=O)c1cccnc1-c1ccc(-c2nnco2)cc1 [Zibotentan] + C[C@@H](Oc1cc(-c2cnn(C3CCNCC3)c2)cnc1N)c1c(Cl)ccc(F)c1Cl [Crizotinib] (partner 1 µM)", 0.448),
    ("COc1nc(C)cnc1NS(=O)(=O)c1cccnc1-c1ccc(-c2nnco2)cc1 [Zibotentan] + O=C(c1cc(Cc2n[nH]c(=O)c3ccccc23)ccc1F)N1CCN(C(=O)C2CC2)CC1 [Olaparib] (partner 8 µM)", 0.682),
    ("O=c1cc(-c2cccc3c2Sc2ccccc2S3)oc(N2CCOCC2)c1 + Nc1ncn([C@H]2C[C@H](O)[C@@H](CO)O2)c(=O)n1 [Decitabine] (partner 2 µM)", 0.928),
]

Let us examine a further case.
Lab note: compound O=c1cc(-c2cccc3c2Sc2ccccc2S3)oc(N2CCOCC2)c1 + NC(=O)Nc1cc(-c2cccc(F)c2)sc1C(=O)N[C@H]1CCCNC1 [AZD7762] (partner 0.2 µM) tested on LC-2-ad; recorded relative viability was 0.944
